Molecular target: human recombinant casein kinase 1ε (Homo sapiens)
Construct: purchased INVITROGEN PV3500
Sequence (P49674 whole entry): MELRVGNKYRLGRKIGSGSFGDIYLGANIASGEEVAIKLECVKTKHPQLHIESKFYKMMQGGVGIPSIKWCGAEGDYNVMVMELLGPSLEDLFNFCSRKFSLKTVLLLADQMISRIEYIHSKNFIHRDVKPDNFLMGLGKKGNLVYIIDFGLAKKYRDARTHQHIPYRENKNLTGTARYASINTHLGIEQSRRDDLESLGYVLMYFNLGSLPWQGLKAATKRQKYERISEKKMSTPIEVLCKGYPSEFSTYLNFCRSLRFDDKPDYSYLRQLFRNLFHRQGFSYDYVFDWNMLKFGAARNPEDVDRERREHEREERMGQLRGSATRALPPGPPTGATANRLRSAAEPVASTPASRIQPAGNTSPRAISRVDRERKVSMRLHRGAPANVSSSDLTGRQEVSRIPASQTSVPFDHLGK
Assay: Casein kinase 1ε inhibition assay (Z'-LYTE Ser/Thr 11 Peptide)
Format: biochemical
Details: 0.3 μg/ml compound, 0.5 μg/ml enzyme, 1.0 μM peptide, 20 μM ATP; 15 min pre-reaction, 2 hours; read-out: Casein kinase 1ε inhibitory rate
Short version: inhibition at 0.3 µg/mL at least 50% is Condition met, less is Condition not met.

1) COc1cncc(/C=C2\N=C(c3cccs3)OC2=O)c1 ... Condition met
2) COCc1ccc(/C=C2\N=C(c3cccs3)OC2=O)o1 ... Condition not met
3) O=C1OC(c2cccs2)=N/C1=C\c1cccnc1F ... Condition not met
4) COc1ccc(/C=C2\N=C(c3cccs3)OC2=O)cc1[N+](=O)[O-] ... Condition met
5) O=C1OC(c2cccs2)=N/C1=C\c1cc(Cl)c2c(c1)OCCO2 ... Condition met

Prompt: Confirm if inhibition at 0.3 µg/mL reported for the molecule COc1ccc(/C=C2\N=C(c3cccs3)OC2=O)cn1 is 50% or above.
Completion: Condition met

Prompt: State whether the measured inhibition at 0.3 µg/mL reaches 50%, counting equality as reaching it, for COc1cncc(/C=C2\N=C(c3ccc(C)s3)OC2=O)c1
Completion: Condition met

Prompt: inhibition at 0.3 µg/mL >= 50% for Cn1cnc(/C=C2\N=C(c3cccs3)OC2=O)c1 ?
Completion: Condition not met

Prompt: Test whether the molecule O=C1OC(c2cccs2)=N/C1=C\c1ccc([N+](=O)[O-])c(Br)c1 records inhibition at 0.3 µg/mL of 50% or higher.
Completion: Condition met

Prompt: API: above_or_equal(metric=inhibition at 0.3 µg/mL, cutoff=50%) for item COc1ccc(C2=N/C(=C\c3cccnc3)C(=O)O2)cc1Br
Completion: Condition met

Prompt: Confirm if inhibition at 0.3 µg/mL reported for the molecule Cc1cc(C2=N/C(=C\c3cccnc3)C(=O)O2)ccc1Br is 50% or above.
Completion: Condition met

----------
Target: human recombinant casein kinase 1δ (Homo sapiens)
Construct: purchased INVITROGEN PV3665
Sequence (P48730 whole entry): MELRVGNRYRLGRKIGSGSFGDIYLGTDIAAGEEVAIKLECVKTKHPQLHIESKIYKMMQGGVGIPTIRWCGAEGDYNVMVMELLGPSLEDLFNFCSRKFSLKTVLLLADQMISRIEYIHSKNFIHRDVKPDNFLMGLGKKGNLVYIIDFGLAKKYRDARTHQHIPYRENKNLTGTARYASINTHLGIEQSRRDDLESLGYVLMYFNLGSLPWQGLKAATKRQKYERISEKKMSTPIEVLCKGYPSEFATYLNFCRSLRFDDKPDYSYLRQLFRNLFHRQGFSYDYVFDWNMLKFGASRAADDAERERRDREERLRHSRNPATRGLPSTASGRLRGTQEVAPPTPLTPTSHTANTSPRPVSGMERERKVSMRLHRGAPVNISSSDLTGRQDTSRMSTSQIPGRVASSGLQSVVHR
Test: Casein kinase 1δ inhibition assay (Z'-LYTE Ser/Thr 11 Peptide)
Format: biochemical
Conditions: 0.3 μg/ml compound, 3.0 μg/ml enzyme, 1.0 μM peptide, 20 μM ATP; 15 min pre-reaction, 2 hours; read-out: Casein kinase 1δ inhibitory rate
List of inhibition at 0.3 µg/mL values.
Supply the numeric figure in %, leaving out any unit text.

Study these solved cases before continuing.
1. O=C1OC(c2cccs2)=N/C1=C\c1cncc(F)c1 ... 87.4
2. COc1cncc(/C=C2\N=C(c3cccs3)OC2=O)c1 ... 91.1
3. COc1ccc(/C=C2\N=C(c3cccs3)OC2=O)c(Cl)n1 ... 76.1
4. COC(=O)c1ccc(/C=C2\N=C(c3cccs3)OC2=O)cc1 ... 86.8

Prompt: // returns reported inhibition at 0.3 µg/mL for input COc1ccc(/C=C2\N=C(c3cccs3)OC2=O)cn1
Completion: 86.3

Prompt: Which inhibition at 0.3 µg/mL is reported for this compound? O=C1OC(c2cccs2)=N/C1=C\c1ccc([N+](=O)[O-])c(Cl)c1
Completion: 87.6

Prompt: Can you share its inhibition at 0.3 µg/mL? I mean this compound: COc1ccc(C2=N/C(=C\c3cccnc3)C(=O)O2)cc1Br
Completion: 94.2

Prompt: Reported inhibition at 0.3 µg/mL for COc1ccc(/C=C2\N=C(c3cccs3)OC2=O)cc1[N+](=O)[O-] : what is it?
Completion: 91

Prompt: I'd like to know its inhibition at 0.3 µg/mL. The compound in question is O=C1OC(c2cccs2)=N/C1=C\c1cccnc1F
Completion: 65.6

Ref: patent US9018238B2
